experimental target: Follistatin (Homo sapiens)
assay notes: follistatin binders on small-molecule microarrays, primary screen, biochemical, small-molecule microarray, 635/667 nm fluorescence (AID 1132)
condition summary: FST binding, 635 nm fluorescence, higher = more signal
measure name: composite z-score
Answers are plain numbers.

Completed entries (count: 3):
{"compound": "CCOC(=O)C[C@H]1[C@H](OC(=O)c2cc3ccccc3oc2=O)[C@@H](NC(=O)c2ccc(-c3ccccc3)cc2)c2cc(OCCCO)ccc2N1C(=O)Cc1ccc(OC)cc1", "composite z-score": 0.679}
{"compound": "COCCCNC(=O)[C@@]1(Cc2ccccc2I)c2ccccc2C(=O)N(C2CCCCC2)[C@H]1c1ccc(CO)cc1", "composite z-score": 0.926}
{"compound": "C=CCOC(=O)[C@H]1[C@@H]2C(=O)O[C@@H](c3ccccc3)[C@@H](c3ccccc3)N2[C@@H](c2ccc(OCCOC(=O)[C@@H]3C[C@@H]4C(=O)N[C@@H](Cc5ccccc5)C(=O)N4[C@@H]3c3ccc(O)cc3)cc2)[C@]12C(=O)Nc1ccc(I)cc12", "composite z-score": 1.4}

State the recorded composite z-score for every item in the following list.
1. COC(=O)[C@@]1(Cc2ccc(F)cc2)[C@H]2c3cc(C(=O)N(C)C)n(Cc4ccsc4Br)c3C[C@H]2CN1C(=O)c1ccccc1
2. [N-]=[N+]=NCc1ccccc1[C@H]1OC(c2ccc(OCCCO)cc2)=N[C@@]1(Cc1ccccc1N=[N+]=[N-])C(N)=O
3. CC(C)[Si]1(C(C)C)OCc2cc(-c3ccc(-c4ccc(Cl)c(Cl)c4)o3)nc(-c3ccc(Oc4ccccc4)cc3)c21

Response:
1. -0.161
2. 1.21
3. -1.21

Record composite z-score for all entries; do not skip any.
1. COC(=O)[C@H](Cc1ccccc1)N1CC(C)(OC)O[C@@H](Cc2ccccc2)[C@H]1/C=C/C1CC1 (stereo partly drawn)
2. C=CCNC(=O)[C@H]1[C@@H]2C(=O)O[C@@H](c3ccccc3)[C@@H](c3ccccc3)N2[C@@H](c2ccc(OCCO)cc2)[C@]12C(=O)N(C(=O)OCCOC)c1ccc(C#CCC(C(=O)OC)C(=O)OC)cc12

Response:
0.0103
1.27
